Target: artificial cell surface (ACS): biotinylated cell surface proteins from human mononuclear blood cells coupled to streptavidin-sepharose
Test: ACS affinity column adsorption of tryptic dHSA peptides, MALDI-TOF ms
Where no end group is shown, it is not given here. The star is where a group is joined. Cam = NC(=O)C*
RECORDED METRIC: Per cent adsorbed (per cent adsorbed, printed as fraction)

LCTVATLR (Cys alkylated with iodoacetamide (from dHSA)) [HSA tryptic peptide residues 098-105 LCTVATLR] ... 0.35
LVNEVTEFAK [HSA tryptic peptide residues 066-075 …] ... -0.02
YKAAFTEC(Cam)C(Cam)QAADK [HSA tryptic peptide residues 185-198 …] ... -0.37
LKEC(Cam)C(Cam)EKPLLEK [HSA tryptic peptide residues 299-310 …] ... 0.36
C(Cam)C(Cam)AAADPHEC(Cam)YAK [HSA tryptic peptide residues 384-396 …] ... 0.32

I: YLYEIAR [HSA tryptic peptide residues 162-168 YLYEIAR]
II: DDNPNLPR [HSA tryptic peptide residues 131-138 DDNPNLPR]
Inquiry: Form field 'greater Per cent adsorbed (per cent adsorbed, printed as fraction)' accepts I or II ; which applies? Respond using the label that marks the chosen record.
Reply text: I
(I: 0.34, II: 0.01)
